Source: ChEMBL document CHEMBL4477249

Kindly state Activity for each of the entries shown.
- test-description: Induction of nitric oxide release assessed as nitrate/nitrite level at 100 uM after 20 mins by Griess assay
- Format: functional
Give bare numbers, in µM.

Consider the following items and state reported Activity for each.
1. C=C1C(=O)[C@@]23C(=O)OC[C@@]4(C2CC[C@@H]1[C@H]3OC(=O)c1ccccc1C(=O)OCCCOc1no[n+]([O-])c1S(=O)(=O)c1ccccc1)[C@@H](OC(C)=O)CCC(C)(C)[C@H]4C=O (stereo partly drawn)
2. C=C1C(=O)[C@@]23C(=O)OC[C@]4(C(=O)CCC(C)(C)[C@H]4C=O)C2CC[C@@H]1[C@H]3OC(=O)CCC(=O)OCCCCOc1no[n+]([O-])c1S(=O)(=O)c1ccccc1 (stereo partly drawn)
3. C=C1C(=O)[C@@]23C(=O)OC[C@@]4(C2CC[C@@H]1[C@H]3OC(=O)c1ccccc1C(=O)OCCOc1no[n+]([O-])c1S(=O)(=O)c1ccccc1)[C@@H](OC(C)=O)CCC(C)(C)[C@H]4C=O (stereo partly drawn)

1: 7.15; 2: 0.99; 3: 7.32

Consider the following items and state reported Activity for each.
1. C=C1C(=O)[C@@]23C(=O)OC[C@]4(C(=O)CCC(C)(C)[C@H]4C=O)C2CC[C@@H]1[C@H]3OC(=O)CCC(=O)OCCCOc1no[n+]([O-])c1S(=O)(=O)c1ccccc1 (stereo partly drawn)
2. C=C1C(=O)[C@@]23C(=O)OC[C@@]4(C2CC[C@@H]1[C@H]3OC(=O)CCC(=O)OCCCCOc1no[n+]([O-])c1S(=O)(=O)c1ccccc1)[C@@H](OC(C)=O)CCC(C)(C)[C@H]4C=O (stereo partly drawn)
3. C=C1C(=O)[C@@]23C(=O)OC[C@]4(C(=O)CCC(C)(C)[C@H]4C=O)C2CC[C@@H]1[C@H]3OC(=O)c1ccccc1C(=O)OCCOc1no[n+]([O-])c1S(=O)(=O)c1ccccc1 (stereo partly drawn)
4. C=C1C(=O)[C@@]23C(=O)OC[C@@]4(C2CC[C@@H]1[C@H]3OC(=O)c1ccccc1C(=O)OCCCCOc1no[n+]([O-])c1S(=O)(=O)c1ccccc1)[C@@H](OC(C)=O)CCC(C)(C)[C@H]4C=O (stereo partly drawn)
5. C=C1C(=O)[C@@]23C(=O)OC[C@]4(C(=O)CCC(C)(C)[C@H]4C=O)C2CC[C@@H]1[C@H]3OC(=O)CCC(=O)OCCOc1no[n+]([O-])c1S(=O)(=O)c1ccccc1 (stereo partly drawn)
6. C=C1C(=O)[C@@]23C(=O)OC[C@@]4(C2CC[C@@H]1[C@H]3OC(=O)CCC(=O)OCCCOc1no[n+]([O-])c1S(=O)(=O)c1ccccc1)[C@@H](OC(C)=O)CCC(C)(C)[C@H]4C=O (stereo partly drawn)
7. C=C1C(=O)[C@@]23C(=O)OC[C@]4(C(=O)CCC(C)(C)[C@H]4C=O)C2CC[C@@H]1[C@H]3OC(=O)c1ccccc1C(=O)OCCCOc1no[n+]([O-])c1S(=O)(=O)c1ccccc1 (stereo partly drawn)

1: 3.58; 2: 12.9; 3: 11.7; 4: 8.42; 5: 9.14; 6: 6.99; 7: 3.47

Consider the following items and state reported Activity for each.
1. C=C1C(=O)[C@@]23C(=O)OC[C@@]4(C2CC[C@@H]1[C@H]3OC(=O)CCC(=O)OCCOc1no[n+]([O-])c1S(=O)(=O)c1ccccc1)[C@@H](OC(C)=O)CCC(C)(C)[C@H]4C=O (stereo partly drawn)
2. C=C1C(=O)[C@@]23C(=O)OC[C@]4(C(=O)CCC(C)(C)[C@H]4C=O)C2CC[C@@H]1[C@H]3OC(=O)c1ccccc1C(=O)OCCCCOc1no[n+]([O-])c1S(=O)(=O)c1ccccc1 (stereo partly drawn)
3. COC(=O)CCC(=O)OCCOc1no[n+]([O-])c1S(=O)(=O)c1ccccc1

9.14
6.16
15.6

---

- test-description: Induction of nitric oxide release assessed as nitrate/nitrite level at 100 uM after 50 mins by Griess assay
- Assay type: functional
Kindly state Activity for each of the entries shown.
Numbers only, in µM.

>  <compound>
C=C1C(=O)[C@@]23C(=O)OC[C@]4(C(=O)CCC(C)(C)[C@H]4C=O)C2CC[C@@H]1[C@H]3OC(=O)c1ccccc1C(=O)OCCOc1no[n+]([O-])c1S(=O)(=O)c1ccccc1 (stereo partly drawn)

>  <units-label>
µM

>  <experimental-result>
14.8

$$$$

Consider the following items and state reported Activity for each.
1. C=C1C(=O)[C@@]23C(=O)OC[C@]4(C(=O)CCC(C)(C)[C@H]4C=O)C2CC[C@@H]1[C@H]3OC(=O)CCC(=O)OCCCCOc1no[n+]([O-])c1S(=O)(=O)c1ccccc1 (stereo partly drawn)
2. C=C1C(=O)[C@@]23C(=O)OC[C@]4(C(=O)CCC(C)(C)[C@H]4C=O)C2CC[C@@H]1[C@H]3OC(=O)CCC(=O)OCCCOc1no[n+]([O-])c1S(=O)(=O)c1ccccc1 (stereo partly drawn)

15.5
12.1

---

- test-description: Induction of nitric oxide release assessed as nitrate/nitrite level at 100 uM after 10 mins by Griess assay
- Type: functional
Kindly state Activity for each of the entries shown.

Consider the following items and state reported Activity for each.
1. C=C1C(=O)[C@@]23C(=O)OC[C@@]4(C2CC[C@@H]1[C@H]3OC(=O)c1ccccc1C(=O)OCCCCOc1no[n+]([O-])c1S(=O)(=O)c1ccccc1)[C@@H](OC(C)=O)CCC(C)(C)[C@H]4C=O (stereo partly drawn)
2. C=C1C(=O)[C@@]23C(=O)OC[C@]4(C(=O)CCC(C)(C)[C@H]4C=O)C2CC[C@@H]1[C@H]3OC(=O)c1ccccc1C(=O)OCCCCOc1no[n+]([O-])c1S(=O)(=O)c1ccccc1 (stereo partly drawn)
3. COC(=O)CCC(=O)OCCOc1no[n+]([O-])c1S(=O)(=O)c1ccccc1

["10.5 µM", "5.65 µM", "12.2 µM"]

Consider the following items and state reported Activity for each.
1. C=C1C(=O)[C@@]23C(=O)OC[C@]4(C(=O)CCC(C)(C)[C@H]4C=O)C2CC[C@@H]1[C@H]3OC(=O)CCC(=O)OCCCOc1no[n+]([O-])c1S(=O)(=O)c1ccccc1 (stereo partly drawn)
2. C=C1C(=O)[C@@]23C(=O)OC[C@@]4(C2CC[C@@H]1[C@H]3OC(=O)c1ccccc1C(=O)OCCCOc1no[n+]([O-])c1S(=O)(=O)c1ccccc1)[C@@H](OC(C)=O)CCC(C)(C)[C@H]4C=O (stereo partly drawn)
3. C=C1C(=O)[C@@]23C(=O)OC[C@]4(C(=O)CCC(C)(C)[C@H]4C=O)C2CC[C@@H]1[C@H]3OC(=O)c1ccccc1C(=O)OCCOc1no[n+]([O-])c1S(=O)(=O)c1ccccc1 (stereo partly drawn)
4. C=C1C(=O)[C@@]23C(=O)OC[C@]4(C(=O)CCC(C)(C)[C@H]4C=O)C2CC[C@@H]1[C@H]3OC(=O)CCC(=O)OCCOc1no[n+]([O-])c1S(=O)(=O)c1ccccc1 (stereo partly drawn)
5. C=C1C(=O)[C@@]23C(=O)OC[C@@]4(C2CC[C@@H]1[C@H]3OC(=O)c1ccccc1C(=O)OCCOc1no[n+]([O-])c1S(=O)(=O)c1ccccc1)[C@@H](OC(C)=O)CCC(C)(C)[C@H]4C=O (stereo partly drawn)
6. C=C1C(=O)[C@@]23C(=O)OC[C@@]4(C2CC[C@@H]1[C@H]3OC(=O)CCC(=O)OCCCOc1no[n+]([O-])c1S(=O)(=O)c1ccccc1)[C@@H](OC(C)=O)CCC(C)(C)[C@H]4C=O (stereo partly drawn)
7. C=C1C(=O)[C@@]23C(=O)OC[C@]4(C(=O)CCC(C)(C)[C@H]4C=O)C2CC[C@@H]1[C@H]3OC(=O)c1ccccc1C(=O)OCCCOc1no[n+]([O-])c1S(=O)(=O)c1ccccc1 (stereo partly drawn)
8. C=C1C(=O)[C@@]23C(=O)OC[C@@]4(C2CC[C@@H]1[C@H]3OC(=O)CCC(=O)OCCCCOc1no[n+]([O-])c1S(=O)(=O)c1ccccc1)[C@@H](OC(C)=O)CCC(C)(C)[C@H]4C=O (stereo partly drawn)

1. 2.91 µM
2. 6.1 µM
3. 7.66 µM
4. 6.71 µM
5. 6.88 µM
6. 5.37 µM
7. 3.52 µM
8. 11.9 µM

Consider the following items and state reported Activity for each.
1. C=C1C(=O)[C@@]23C(=O)OC[C@@]4(C2CC[C@@H]1[C@H]3OC(=O)CCC(=O)OCCOc1no[n+]([O-])c1S(=O)(=O)c1ccccc1)[C@@H](OC(C)=O)CCC(C)(C)[C@H]4C=O (stereo partly drawn)
2. C=C1C(=O)[C@@]23C(=O)OC[C@]4(C(=O)CCC(C)(C)[C@H]4C=O)C2CC[C@@H]1[C@H]3OC(=O)CCC(=O)OCCCCOc1no[n+]([O-])c1S(=O)(=O)c1ccccc1 (stereo partly drawn)

1: 8.84 µM; 2: 2.8 µM
